Data credit: patent US5284856A

Test system: cAMP-dependent protein kinase
Construct: purchased Sigma Chemical Co., St. Louis, Mo., USA
procedure.summary: 3',5'-cAMP-dependent protein kinase inhibition (catalytic sub-unit, kemptide substrate)
Assay type: biochemical
protocol.conditions: pH 6.9, 45 μg/ml inhibitor, 40 μM ATP, 15 minutes at 30° C., read-out: % inhibition of cAMP-dependent protein kinase at an inhibitor concentration of 45 μg/ml
Counter-ions that a name gives are not always drawn.
measure.name: inhibition at 45 µg/mL (%)
Hi! Could you send only the number? It should be in %, unit omitted.

**Query** Fill in reported inhibition at 45 µg/mL for this entry: CN1CC[C@H](c2c(O)cc(O)c3c(=O)cc(-c4ccccc4Cl)oc23)[C@H](O)C1 (relative stereo) [2-chlorophenyl HCl (±)]
**Result** 29

**Query** Fill in reported inhibition at 45 µg/mL for this entry: CN1CCC(c2c(O)cc(O)c3c(=O)cc(-c4ccc(-c5ccccc5)cc4)oc23)C(O)C1 (racemic) [4-biphenyl HCl (±)]
**Result** 37

**Query** Fill in reported inhibition at 45 µg/mL for this entry: CN1CCC(c2c(O)cc(O)c3c(=O)cc(-c4ccccc4F)oc23)C(O)C1 (racemic) [2-fluorophenyl HCl (±)]
**Result** 0

**Query** Fill in reported inhibition at 45 µg/mL for this entry: CCCc1cc(=O)c2c(O)cc(O)c(C3CCN(C)CC3O)c2o1 (single isomer, unassigned) [n-propyl HCl (-)]
**Result** 5

**Query** Fill in reported inhibition at 45 µg/mL for this entry: CN1CC[C@H](c2c(O)cc(O)c3c(=O)cc(-c4ccccn4)oc23)[C@H](O)C1 (relative stereo) [2-pyridyl HCl (±)]
**Result** 0

**Query** Fill in reported inhibition at 45 µg/mL for this entry: CN1CC[C@H](c2c(O)cc(O)c3c(=O)cc(-c4ccccc4)oc23)[C@H](O)C1 (relative stereo) [phenyl HCl (±)]
**Result** 48

**Query** Fill in reported inhibition at 45 µg/mL for this entry: CN1CC[C@H](c2c(O)cc(O)c3c(=O)cc(-c4ccc5ccccc5c4)oc23)[C@H](O)C1 (relative stereo) [2-naphthyl HCl (±)]
**Result** 0

**Query** Fill in reported inhibition at 45 µg/mL for this entry: CN1CC[C@H](c2c(O)cc(O)c3c(=O)cc(-c4cccs4)oc23)[C@H](O)C1 (relative stereo) [2-thiophenyl (±)]
**Result** 14

**Query** Fill in reported inhibition at 45 µg/mL for this entry: CN1CC[C@H](c2c(O)cc(O)c3c(=O)cc(-c4cccnc4)oc23)[C@H](O)C1 (relative stereo) [3-pyridyl HCl (±)]
**Result** 0

**Query** Fill in reported inhibition at 45 µg/mL for this entry: Cc1ccc(-c2cc(=O)c3c(O)cc(O)c([C@H]4CCN(C)C[C@H]4O)c3o2)cc1 (relative stereo) [4-methylphenyl HCl (±)]
**Result** 55

**Query** Fill in reported inhibition at 45 µg/mL for this entry: CN1CCC(c2c(O)cc(O)c3c(=O)cc(-c4ccc(Cl)cc4)oc23)C(O)C1 (racemic) [4-chlorophenyl HCl (±)]
**Result** 37

**Query** Fill in reported inhibition at 45 µg/mL for this entry: CN1CCC(c2c(O)cc(O)c3c(=O)cc(Cc4ccccc4Cl)oc23)C(O)C1 (racemic) [(2-chlorophenyl)methyl HCl (±)]
**Result** 69

**Query** Fill in reported inhibition at 45 µg/mL for this entry: CN1CCC(c2c(O)cc(O)c3c(=O)cc(-c4ccccc4Br)oc23)C(O)C1 (racemic) [2-bromophenyl (±)]
**Result** 63

**Query** Fill in reported inhibition at 45 µg/mL for this entry: CCCc1cc(=O)c2c(O)cc(O)c(C3CCN(C)CC3O)c2o1 (racemic) [n-propyl HCl (±)]
**Result** 0

**Query** Fill in reported inhibition at 45 µg/mL for this entry: CN1CC[C@H](c2c(O)cc(O)c3c(=O)cc(-c4ccccn4)oc23)[C@H](O)C1 (single isomer, unassigned) [2-pyridyl HCl (-)]
**Result** 6

**Query** Fill in reported inhibition at 45 µg/mL for this entry: CCc1cc(=O)c2c(O)cc(O)c(C3CCN(C)CC3O)c2o1 (racemic) [ethyl HCl (±)]
**Result** 0

**Query** Fill in reported inhibition at 45 µg/mL for this entry: CN1CC[C@H](c2c(O)cc(O)c3c(=O)cc(-c4ccccc4Cl)oc23)[C@H](O)C1 (single isomer, unassigned) [2-chlorophenyl HCl (+)]
**Result** 27

**Query** Fill in reported inhibition at 45 µg/mL for this entry: CN1CCC(c2c(O)cc(O)c3c(=O)cc(-c4ccc(F)cc4)oc23)C(O)C1 (racemic) [4-fluorophenyl HCl (±)]
**Result** 25

**Query** Fill in reported inhibition at 45 µg/mL for this entry: CN1CCC(c2c(O)cc(O)c3c(=O)cc(-c4ccc(Br)cc4)oc23)C(O)C1 (racemic) [4-bromophenyl HCl (±)]
**Result** 65

**Query** Fill in reported inhibition at 45 µg/mL for this entry: CN1CC[C@H](c2c(O)cc(O)c3c(=O)cc(-c4ccncc4)oc23)[C@H](O)C1 (relative stereo) [4-pyridyl HCl (±)]
**Result** 12
